read-out: Nuclear factor erythroid 2-related factor 2 (Homo sapiens) (UniProt Q16236); test: LTEA_HepaRG_NFE2L2: Life Technologies and Expression Analysis (LTEA) Assay for Nuclear factor erythroid 2-related factor 2 (NFE2L2) Transcription Factor using HepaRG (AID 2283527); conditions: mRNA level, 48 h; actives raise or lower the signal
Sequence (Q16236 whole entry, looked up): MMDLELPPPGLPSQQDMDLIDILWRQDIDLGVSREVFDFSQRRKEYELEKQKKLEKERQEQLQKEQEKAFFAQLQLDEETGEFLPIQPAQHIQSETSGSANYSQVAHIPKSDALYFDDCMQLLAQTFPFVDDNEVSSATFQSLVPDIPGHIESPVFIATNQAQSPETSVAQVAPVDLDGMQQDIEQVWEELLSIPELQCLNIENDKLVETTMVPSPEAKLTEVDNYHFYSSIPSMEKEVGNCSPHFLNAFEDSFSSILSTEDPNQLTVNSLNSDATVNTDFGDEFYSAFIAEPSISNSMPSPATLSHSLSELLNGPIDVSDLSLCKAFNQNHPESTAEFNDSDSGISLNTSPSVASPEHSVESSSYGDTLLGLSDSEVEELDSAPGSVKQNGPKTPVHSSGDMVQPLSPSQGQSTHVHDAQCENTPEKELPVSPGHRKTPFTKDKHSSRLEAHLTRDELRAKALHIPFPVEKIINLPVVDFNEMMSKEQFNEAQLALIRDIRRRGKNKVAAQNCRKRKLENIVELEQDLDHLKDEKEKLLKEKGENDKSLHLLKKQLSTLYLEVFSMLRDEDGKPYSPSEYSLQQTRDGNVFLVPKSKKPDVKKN
Activity calls are given as the source filed them. How the source made its calls: active means hit-call score of the fitted dose curve at least 0.9, where 1 is the maximum; inactive means score below 0.9.
Possible outcomes: active, inactive

{"compound": "CCCCNC(=O)OCC#CI", "category": "inactive"}
{"compound": "CC(Oc1ccc(Cl)cc1Cl)C(=O)O (configuration not stated)", "category": "inactive"}
{"compound": "CC(C)(C)c1ccc(CSc2cnn(C(C)(C)C)c(=O)c2Cl)cc1", "category": "active"}
{"compound": "CCCCC(CC)COC(=O)c1ccccc1C(=O)OCC(CC)CCCC (configuration not stated)", "category": "inactive"}
{"compound": "O=C(O)c1nc(Cl)ccc1Cl", "category": "inactive"}
{"compound": "C#CCOS(=O)OC1CCCCC1Oc1ccc(C(C)(C)C)cc1 (configuration not stated)", "category": "inactive"}
{"compound": "N#Cc1nn(-c2c(Cl)cc(C(F)(F)F)cc2Cl)c(N)c1S(=O)C(F)(F)F (configuration not stated)", "category": "active"}
{"compound": "C=CCC1=C(C)C(OC(=O)C2C(C=C(C)C)C2(C)C)CC1=O (configuration not stated)", "category": "inactive"}
{"compound": "CCCC1COC(Cn2cncn2)(c2ccc(Cl)cc2Cl)O1 (configuration not stated)", "category": "active"}
{"compound": "CC(C)Oc1cc(-n2nc(C(C)(C)C)oc2=O)c(Cl)cc1Cl", "category": "inactive"}
{"compound": "COc1nc(NC(C)C)nc(NC(C)C)n1", "category": "inactive"}
{"compound": "COC(=O)C(C)Oc1ccc(Oc2ccc(Cl)cc2Cl)cc1 (configuration not stated)", "category": "inactive"}

----------
target: human CYP1A1, CYP1A1 (gene 1543); test: NVS_ADME_hCYP1A1: NovaScreen (NVS) CYP450-related Enzyme Activity (ADME) Assay for human CYP1A1 (AID 2283100)
Results filed as inconclusive are left out. Activity calls are given as the source filed them. How the source made its calls: active means hit-call score of the fitted dose curve at least 0.9, where 1 is the maximum; inconclusive means response in the unintended direction; inactive means score below 0.9.
Possible outcomes: active, inactive

{"smiles-repr": "CON(C)C(=O)Nc1ccc(Cl)c(Cl)c1", "category": "active"}
{"smiles-repr": "CCCCOC(=O)c1ccccc1C(=O)OCCCC", "category": "inactive"}
{"smiles-repr": "CS/C(C)=N/OC(=O)N(C)SN(C)C(=O)O/N=C(\\C)SC", "category": "active"}

----------
read-out: catalase (CAT), CAT (gene 847); test: LTEA_HepaRG_CAT: Life Technologies and Expression Analysis (LTEA) Assay for catalase (CAT) using HepaRG (AID 2283452); conditions: mRNA level, 48 h; actives raise or lower the signal
Calls of active or inactive are those of the source. How the source made its calls: active means hit-call score of the fitted dose curve at least 0.9, where 1 is the maximum; inactive means score below 0.9.
Possible outcomes: active, inactive

{"compound": "CC(C)(C)c1ccc(CSc2cnn(C(C)(C)C)c(=O)c2Cl)cc1", "category": "active"}
{"compound": "CCON=C(CC)C1=C(O)CC(c2c(C)cc(C)cc2C)CC1=O (stereo not given)", "category": "inactive"}
{"compound": "Cc1ccc(-c2c(Cl)nc(C#N)n2S(=O)(=O)N(C)C)cc1", "category": "active"}
{"compound": "COC(=O)c1ccccc1C(=O)OC", "category": "inactive"}
{"compound": "COP(=S)(OC)Oc1nc(Cl)c(Cl)cc1Cl", "category": "inactive"}

----------
test: Tanguay_ZF_120hpf_EYE_legacy: (Legacy) Oregon State University Tanguay Lab 120 Hour Post-fertilization zebrafish Assay for Eye Malformation (AID 2283636);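 further: binary presence or absence of eye malformation scored by brightfield in 120 hpf larvae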
Inconclusive results are not listed. Activity calls are given as the source filed them. Rule for the calls: active = hit-call score of the fitted dose curve at least 0.9, where 1 is the maximum; inconclusive = response in the unintended direction; inactive = score below 0.9.
Possible outcomes: active, inactive

{"compound": "CCNc1nc(Cl)nc(NCC)n1", "category": "inactive"}
{"compound": "CCCCOC(=O)c1ccccc1C(=O)OCCCC", "category": "inactive"}
{"compound": "O=C(O)c1nc(Cl)ccc1Cl", "category": "inactive"}
{"compound": "CCNc1nc(Cl)nc(NC(C)C)n1", "category": "inactive"}
{"compound": "COc1ccc(C(c2ccc(OC)cc2)C(Cl)(Cl)Cl)cc1", "category": "inactive"}
{"compound": "CC(C)C1(C)N=C(c2nc3ccccc3cc2C(=O)O)NC1=O (stereo not drawn)", "category": "inactive"}
{"compound": "CC(Oc1ccc(Cl)cc1Cl)C(=O)O (stereo not drawn)", "category": "inactive"}
{"compound": "CCOC(=O)CC(SP(=S)(OC)OC)C(=O)OCC (stereo not drawn)", "category": "active"}
{"compound": "C=CCC1=C(C)C(OC(=O)C2C(C=C(C)C)C2(C)C)CC1=O (stereo not drawn)", "category": "inactive"}
{"compound": "Cc1c(F)c(F)c(COC(=O)C2C(/C=C(\\Cl)C(F)(F)F)C2(C)C)c(F)c1F (stereo not drawn)", "category": "active"}
{"compound": "OC(c1ccc(Cl)cc1)(c1cncnc1)c1ccccc1Cl (stereo not drawn)", "category": "inactive"}
{"compound": "CCOP(=S)(OCC)SCn1c(=O)oc2cc(Cl)ccc21", "category": "inactive"}
{"compound": "CC(C)(C)c1ccc(CSc2cnn(C(C)(C)C)c(=O)c2Cl)cc1", "category": "inactive"}

----------
molecular target: Cytochrome P450 3A4 (Homo sapiens); assay: NVS_ADME_hCYP3A4: NovaScreen (NVS) CYP450-related Enzyme Activity (ADME) Assay for human CYP3A4 (AID 2283110)
Records with an inconclusive call do not appear. Calls of active or inactive are those of the source. How the source made its calls: active means hit-call score of the fitted dose curve at least 0.9, where 1 is the maximum; inconclusive means response in the unintended direction; inactive means score below 0.9.
measured-parameter: AC50

{"molecule": "N#CC(CCc1ccc(Cl)cc1)(Cn1cncn1)c1ccccc1 (stereo unspecified)", "result": "4.35 µM (active)"}
{"molecule": "C=CCC1=C(C)C(OC(=O)C2C(C=C(C)C)C2(C)C)CC1=O (stereo unspecified)", "result": "inactive"}
{"molecule": "CCCN(CCC)c1c([N+](=O)[O-])cc(S(N)(=O)=O)cc1[N+](=O)[O-]", "result": "inactive"}
{"molecule": "C=CC1(C)OC(=O)N(c2cc(Cl)cc(Cl)c2)C1=O (stereo unspecified)", "result": "inactive"}
{"molecule": "C#CCOS(=O)OC1CCCCC1Oc1ccc(C(C)(C)C)cc1 (stereo unspecified)", "result": "inactive"}
{"molecule": "O=C(O)c1nc(Cl)ccc1Cl", "result": "inactive"}

----------
read-out: Forkhead box O3 (FOXO3), FOXO3 (gene 2309); test: LTEA_HepaRG_FOXO3: Life Technologies and Expression Analysis (LTEA) Assay for Forkhead box O3 (FOXO3) using HepaRG (AID 2283459); settings: mRNA level, 48 h; actives raise or lower the signal
Activity calls are given as the source filed them. How the source made its calls: active means hit-call score of the fitted dose curve at least 0.9, where 1 is the maximum; inactive means score below 0.9.
Possible outcomes: active, inactive

{"compound": "CCCCNC(=O)n1c(NC(=O)OC)nc2ccccc21", "category": "inactive"}
{"compound": "COC(=O)c1ccccc1C(=O)OC", "category": "inactive"}
{"compound": "CCOC(=O)CC(SP(=S)(OC)OC)C(=O)OCC (configuration not stated)", "category": "inactive"}
{"compound": "CN(C)C(=S)SSC(=S)N(C)C", "category": "inactive"}
{"compound": "Cc1ccc(-c2c(Cl)nc(C#N)n2S(=O)(=O)N(C)C)cc1", "category": "active"}
{"compound": "N#Cc1nn(-c2c(Cl)cc(C(F)(F)F)cc2Cl)c(N)c1S(=O)C(F)(F)F (configuration not stated)", "category": "inactive"}
{"compound": "CO/C=C(/C(=O)OC)c1ccccc1Oc1cc(Oc2ccccc2C#N)ncn1", "category": "inactive"}
{"compound": "CCOP(=S)(OCC)SCn1c(=O)oc2cc(Cl)ccc21", "category": "inactive"}
{"compound": "CCNc1nc(Cl)nc(NCC)n1", "category": "inactive"}
{"compound": "CC1COC(Cn2cncn2)(c2ccc(Oc3ccc(Cl)cc3)cc2Cl)O1 (configuration not stated)", "category": "active"}
{"compound": "CC(Oc1ccc(Cl)cc1Cl)C(=O)O (configuration not stated)", "category": "inactive"}
{"compound": "CC1=C(C(=O)Nc2ccccc2)SCCO1", "category": "active"}

----------
Read-out: solute carrier (SLC22A1), SLC22A1 (gene 6580)
Experiment: LTEA_HepaRG_SLC22A1: Life Technologies and Expression Analysis (LTEA) Assay for solute carrier (SLC22A1) using HepaRG (AID 2283524);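 on AC50: differentiated human HepaRG liver cells in serum-free induction medium; TaqMan qRT-PCR normalized to ACTB GAPDH and POLR2A housekeeping genes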
Settings: mRNA level, 48 h; actives raise or lower the signal
Procedure: LTEA_HepaRG is a cell based, multiplexed-readout assay that uses HepaRG, a human liver cell line, with measurements taken at 48 hours after chemical dosing on a 96-well plate.LTEA_HepaRG_SLC22A1 is one of 102 assay component(s) measured in the LTEA HepaRG cell culture assay. It is a marker of NR mediated transport.Data from the assay component LTEA_HepaRG_SLC22A1 was analyzed into 1 endpoint. […]
Activity calls are given as the source filed them. How the source made its calls: active means hit-call score of the fitted dose curve at least 0.9, where 1 is the maximum; inactive means score below 0.9.
measured-parameter: AC50

{"compound": "CC1=C(C(=O)Nc2ccccc2)SCCO1", "result": "14.2 µM (active)"}
{"compound": "CCc1nn(C)c(C(=O)NCc2ccc(C(C)(C)C)cc2)c1Cl", "result": "4.52 µM (active)"}
{"compound": "O=C(O)COc1nc(Cl)c(Cl)cc1Cl", "result": "inactive"}
{"compound": "COP(N)(=O)SC (stereo not drawn)", "result": "inactive"}
{"compound": "COc1cnc(OC)n2nc(NS(=O)(=O)c3c(OCC(F)F)cccc3C(F)(F)F)nc12", "result": "inactive"}
{"compound": "COc1nc(NC(C)C)nc(NC(C)C)n1", "result": "inactive"}
{"compound": "N#Cc1cc(Br)c(O)c(Br)c1", "result": "16.2 µM (active)"}
{"compound": "CCOC(=O)CC(SP(=S)(OC)OC)C(=O)OCC (stereo not drawn)", "result": "inactive"}
{"compound": "CON(C)C(=O)Nc1ccc(Cl)c(Cl)c1", "result": "50 µM (active)"}
{"compound": "CCNc1nc(Cl)nc(NC(C)C)n1", "result": "inactive"}
{"compound": "CCCCC(CC)COC(=O)c1ccccc1C(=O)OCC(CC)CCCC (stereo not drawn)", "result": "inactive"}
{"compound": "C=CC1(C)OC(=O)N(c2cc(Cl)cc(Cl)c2)C1=O (stereo not drawn)", "result": "inactive"}
{"compound": "Cc1ccc(-c2c(Cl)nc(C#N)n2S(=O)(=O)N(C)C)cc1", "result": "50 µM (active)"}
{"compound": "C#CCOS(=O)OC1CCCCC1Oc1ccc(C(C)(C)C)cc1 (stereo not drawn)", "result": "20.7 µM (active)"}
{"compound": "CC(C)Oc1cc(-n2nc(C(C)(C)C)oc2=O)c(Cl)cc1Cl", "result": "42.8 µM (active)"}
{"compound": "Fc1ccc(Oc2ccnc3cc(Cl)cc(Cl)c23)cc1", "result": "97.8 µM (active)"}
{"compound": "CNC(=O)ON=CC(C)(C)SC", "result": "inactive"}
{"compound": "O=C(Nc1ccccc1)Nc1ccnc(Cl)c1", "result": "68 µM (active)"}
{"compound": "COC(=O)C=C(C)OP(=O)(OC)OC", "result": "inactive"}
{"compound": "CCCCNC(=O)n1c(NC(=O)OC)nc2ccccc21", "result": "inactive"}
{"compound": "N#CC(CCc1ccc(Cl)cc1)(Cn1cncn1)c1ccccc1 (stereo not drawn)", "result": "71.5 µM (active)"}
{"compound": "CN(C)C(=S)SSC(=S)N(C)C", "result": "inactive"}
{"compound": "CC(C)C1(C)N=C(c2nc3ccccc3cc2C(=O)O)NC1=O (stereo not drawn)", "result": "inactive"}
{"compound": "COc1ccc(C(c2ccc(OC)cc2)C(Cl)(Cl)Cl)cc1", "result": "84.8 µM (active)"}
{"compound": "Cc1c(F)c(F)c(COC(=O)C2C(/C=C(\\Cl)C(F)(F)F)C2(C)C)c(F)c1F (stereo not drawn)", "result": "12.3 µM (active)"}
{"compound": "CCOC(=O)C(Cl)Cc1cc(-n2nc(C)n(C(F)F)c2=O)c(F)cc1Cl (stereo not drawn)", "result": "inactive"}
{"compound": "CCCCOC(=O)c1ccccc1C(=O)OCCCC", "result": "inactive"}
{"compound": "CC(C)(C)c1ccc(CSc2cnn(C(C)(C)C)c(=O)c2Cl)cc1", "result": "2.71 µM (active)"}

These data points were gathered from PubChem BioAssay (EPA / NIEHS).
